The measurements presented in this section are drawn from paper PMC6001238.

# Tested on: MRSA KS2
# assay-name: MIC, broth microdilution, MRSA KS2
# Type: cell-based, Staphylococcus aureus
# assay-conditions: Staphylococcus aureus MRSA KS2; read-out: MIC
metric: MIC (µM)
The response must be a number in µM with no trailing unit.

| molecule | assay-value |
| --- | --- |
| CN[C@H](CC(C)C)C(=O)N[C@H]1C(=O)N[C@@H](CC(N)=O)C(=O)N[C@H]2C(=O)N[C@H]3C(=O)N[C@H](C(=O)N[C@H](C(=O)NCC(=O)Nc4c(C)cc(C)cc4C)c4cc(O)cc(O)c4-c4cc3ccc4O)[C@H](O)c3ccc(c(Cl)c3)Oc3cc2cc(c3O[C@@H]2O[C@H](CO)[C@@H](O)[C@H](O)[C@H]2O[C@H]2C[C@](C)(N)[C@H](O)[C@H](C)O2)Oc2ccc(cc2Cl)[C@H]1O | 0.78 |
| CNC(CC(C)C)C(=O)NC1C(=O)NC(CC(N)=O)C(=O)NC2C(=O)NC3C(=O)NC(C(=O)NC(C(=O)NCCCNC(=O)c4ccc(-c5ccc(-c6ccccc6)cc5)cc4)c4cc(O)cc(O)c4-c4cc3ccc4O)C(O)c3ccc(c(Cl)c3)Oc3cc2cc(c3OC2OC(CO)C(O)C(O)C2OC2CC(C)(N)C(O)C(C)O2)Oc2ccc(cc2Cl)C1O (stereo not drawn) | 0.39 |
| CNC(CC(C)C)C(=O)NC1C(=O)NC(CC(N)=O)C(=O)NC2C(=O)NC3C(=O)NC(C(=O)NC(C(=O)NCCNC(=O)C=Cc4ccccc4)c4cc(O)cc(O)c4-c4cc3ccc4O)C(O)c3ccc(c(Cl)c3)Oc3cc2cc(c3OC2OC(CO)C(O)C(O)C2OC2CC(C)(N)C(O)C(C)O2)Oc2ccc(cc2Cl)C1O (stereo not drawn) | 0.39 |

Input: I'd like to know its MIC. The molecule in question is CNC(CC(C)C)C(=O)NC1C(=O)NC(CC(N)=O)C(=O)NC2C(=O)NC3C(=O)NC(C(=O)NC(C(=O)NCCCNC(=O)c4cc5ccccc5s4)c4cc(O)cc(O)c4-c4cc3ccc4O)C(O)c3ccc(c(Cl)c3)Oc3cc2cc(c3OC2OC(CO)C(O)C(O)C2OC2CC(C)(N)C(O)C(C)O2)Oc2ccc(cc2Cl)C1O (stereo not drawn)
Output: 0.39

Input: I'd like to know its MIC. The molecule in question is `CN[C@H](CC(C)C)C(=O)N[C@H]1C(=O)N[C@@H](CC(N)=O)C(=O)N[C@H]2C(=O)N[C@H]3C(=O)N[C@H](C(=O)N[C@H](C(=O)NCC(=O)Nc4cc(C)cc(C)c4)c4cc(O)cc(O)c4-c4cc3ccc4O)[C@H](O)c3ccc(c(Cl)c3)Oc3cc2cc(c3O[C@@H]2O[C@H](CO)[C@@H](O)[C@H](O)[C@H]2O[C@H]2C[C@](C)(N)[C@H](O)[C@H](C)O2)Oc2ccc(cc2Cl)[C@H]1O`
Output: 0.78

Input: I'd like to know its MIC. The molecule in question is `CN[C@H](CC(C)C)C(=O)N[C@H]1C(=O)N[C@@H](CC(N)=O)C(=O)N[C@H]2C(=O)N[C@H]3C(=O)N[C@H](C(=O)N[C@H](C(=O)NCC(=O)Nc4ccc(Cl)cc4Cl)c4cc(O)cc(O)c4-c4cc3ccc4O)[C@H](O)c3ccc(c(Cl)c3)Oc3cc2cc(c3O[C@@H]2O[C@H](CO)[C@@H](O)[C@H](O)[C@H]2O[C@H]2C[C@](C)(N)[C@H](O)[C@H](C)O2)Oc2ccc(cc2Cl)[C@H]1O`
Output: 0.20
